A collection of binders and their measured pKd
- test_target: RSV postfusion F (postF), F ΔFP (Respiratory Syncytial Virus, UniProt P03420 26-513)
- test_summary: BLI, IgG on anti-human IgG sensor, 100 nM antigen, 1:1 fit
Scale for pKd: -log10 of concentration given in mol/L; no unit attached.

Consider the following illustrative entries.
1) ADI-41535 (antibody, V domains shown) VH: QVTLKESGPALVKPTQTLTLTCTFSGFSLSTSRMCVSWIRQSPGKALEWLARIDWDDDKFFSTSLKTRLTISKDTSRNQVVLTMTNMDPVDTATYYCARTTVYASGGYYLYYFDYWGQGTLVTVSS VL: DIQLTQSPSSLPASVGDRVTITCRASQRIASYLNWYQQKPGKAPKVLIYAASNLQSGVPSRFSGSGSGTDFTLTINSLQPEDFATYYCQQSYTTPWTFGQGTKVEIK = 9.32
2) ADI-41486 (antibody, V domains shown, also called Ab 767; Antibody Number 767) VH: QVQLQQWGAGLLKPSETLSLTCSVYGGSFSGYYWSWIRQPPGKGLEWIGEINHSGSTNYNPSLKSRITISVDTSKNQFSLKLNSVTAADTAVYYCARGDYAFVTFDYWGQGTLVTVSS VL: QSVLTQPASVSGSPGQSITISCTGTSSDVGGYNYVSWYQQHPGKAPKLMIYEVSNRPSGVSNRFSGSKSGNTASLTISGLQAEDEADYYCSSYTSSSTPVFGGGTKLTVL = 9.35

Let us examine a further case.
Which value of pKd has been reported for ADI-41533 (antibody, V domains shown) VH: QVQLVESGGGVVQPGRSLRLSCAASGFTFSSYAMHWVRQAPGKGLEWLAVISFDGSSEFYGDSVRGRFTISRDNSKNTLYLRVNSLRAEDTALYYCARRSLKYSMYNNDAFDVWGQGTTVTVSS VL: QPVLTQPPSVSVSPGQTASITCSGDKLGNKFTFWYQQKSGQSPVLVIYQESQRPSGIPERFSGSNSGNTATLTIRGAQAMDEADYYCQAWDSSTAFFGGGTKLTVL in the records? 9.37
